Test: Bioavailability determination of KD025HCl in mice (plasma levels after IV or PO)
Type: in vivo
Settings: male, Swiss albino, mouse, plasma, iv, 2 mg/kg, IV 2.00 mg/kg, 0.08 h, read-out: Plasma concentration, individual animals (M1-, M2-, M3-)
Experimental: To determine the bioavailability KD025HCl, serum concentrations of KD025HCl were determined after varying durations following oral or intravenous (IV) administration. Doses were validated by LC/MS/MS. […] Using this procedure, the plasma levels of KD025HCl after either IV or PO administration was determined, and bioavailability as well as other pharmacokinetic parameters were determined and shown in Table 6.

{"compound": "COc1ccc(-c2nnc(Nc3nc4c(OC)nccc4[nH]3)o2)cc1OC [KD025HCl]", "concentration at 0.08 h (ng/mL)": 4790}

* * *

tested on: HIF-2α transcriptional activity; test: Hypoxia-responsive element-driven luciferase (HRE-Luc) assay; type: cell-based, human; settings: Homo sapiens; 786-0 CCRCC cells stably expressing HRE-Luc, 24 hours treatment
pIC50: −log10 of the molar value.
Label Y when pIC50 is at or above 5; anything below gets N.

{"compound": "COc1nccc2[nH]c(Nc3nnc(-c4ccc(N(C)C)cc4)o3)nc12 [KD027]", "target-or-test-system": "HIF-2α transcriptional activity", "label": "Y"}
{"compound": "Fc1ccc(-c2nnc(Nc3nc4ncccc4o3)o2)cc1 [KD007]", "target-or-test-system": "HIF-2α transcriptional activity", "label": "Y"}
{"compound": "Cc1cncc2nc(Nc3nnc(-c4ccc(F)cc4)o3)[nH]c12 [KD006TFA]", "target-or-test-system": "HIF-2α transcriptional activity", "label": "N"}

* * *

assay: Bioavailability determination of KD025HCl in mice (plasma levels after IV or PO); assay type: in vivo; details: male, Swiss albino, mouse, plasma, iv, 2 mg/kg, IV 2.00 mg/kg, 0.25 h, read-out: Plasma concentration, Mean
test-readout: concentration at 0.25 h (ng/mL)

{"molecule": "COc1ccc(-c2nnc(Nc3nc4c(OC)nccc4[nH]3)o2)cc1OC [KD025HCl]", "measured-number": 2340}

* * *

assay: Bioavailability determination of KD025HCl in mice (plasma levels after IV or PO); type: in vivo; conditions: male, Swiss albino, mouse, plasma, po, 10 mg/kg, PO 10.00 mg/kg, 1.00 h, read-out: Plasma concentration, Mean

{"compound": "COc1ccc(-c2nnc(Nc3nc4c(OC)nccc4[nH]3)o2)cc1OC [KD025HCl]", "concentration at 1 h [ng/mL]": 1140}

* * *

experiment: Bioavailability determination of KD025HCl in mice (plasma levels after IV or PO); format: in vivo; settings: male, Swiss albino, mouse, plasma, iv, 2 mg/kg, IV 2.00 mg/kg, 4.00 h, read-out: Plasma concentration, individual animals (M1-, M2-, M3-)
test-readout: concentration at 4 h (ng/mL)

{"compound": "COc1ccc(-c2nnc(Nc3nc4c(OC)nccc4[nH]3)o2)cc1OC [KD025HCl]", "measured-number": 37.2}

* * *

test: Bioavailability determination of KD025HCl in mice (plasma levels after IV or PO); format: in vivo; settings: male, Swiss albino, mouse, plasma, po, 10 mg/kg, PO 10.00 mg/kg, 24.00 h, BLQ: Below limits of quantitation, read-out: Plasma concentration, individual animals (M1-, M2-, M3-)

{"molecule": "COc1ccc(-c2nnc(Nc3nc4c(OC)nccc4[nH]3)o2)cc1OC [KD025HCl]", "concentration at 24 h (ng/mL)": 1.79}

* * *

test: Bioavailability determination of KD025HCl in mice (plasma levels after IV or PO); assay type: in vivo; details: male, mouse; IV 2.00 mg/kg, Swiss albino mice, plasma; read-out: MRT0-last

{"molecule": "COc1ccc(-c2nnc(Nc3nc4c(OC)nccc4[nH]3)o2)cc1OC [KD025HCl]", "MRT last": "59.4 min"}

* * *

system: HIF-2α transcriptional activity; test: Hypoxia-responsive element-driven luciferase (HRE-Luc) assay; format: cell-based, human; details: Homo sapiens; 786-0 CCRCC cells stably expressing HRE-Luc, 24 hours treatment
Overview of reported IC50 across a group of compounds:

{"record-smiles": "CS(=O)(=O)C1CCN(c2cc3[nH]c(Nc4nnc(-c5ccc(F)cc5)o4)nc3cn2)CC1", "IC50": "> 100 µM"}
{"record-smiles": "COc1nccc2[nH]c(Nc3nnc(-c4ccc(C(C)(C)C)cc4)o3)nc12", "IC50": "> 100 µM"}
{"record-smiles": "CN1CCN(c2cc3[nH]c(Nc4nnc(-c5ccc(F)cc5)o4)nc3cn2)CC1", "IC50": "> 100 µM"}
